Where these numbers come from: ChEMBL document CHEMBL1201862

# STUDY_TARGET: Leucine aminopeptidase (Plasmodium falciparum 3D7, UniProt Q8IL11)
# Sequence (Q8IL11 whole entry): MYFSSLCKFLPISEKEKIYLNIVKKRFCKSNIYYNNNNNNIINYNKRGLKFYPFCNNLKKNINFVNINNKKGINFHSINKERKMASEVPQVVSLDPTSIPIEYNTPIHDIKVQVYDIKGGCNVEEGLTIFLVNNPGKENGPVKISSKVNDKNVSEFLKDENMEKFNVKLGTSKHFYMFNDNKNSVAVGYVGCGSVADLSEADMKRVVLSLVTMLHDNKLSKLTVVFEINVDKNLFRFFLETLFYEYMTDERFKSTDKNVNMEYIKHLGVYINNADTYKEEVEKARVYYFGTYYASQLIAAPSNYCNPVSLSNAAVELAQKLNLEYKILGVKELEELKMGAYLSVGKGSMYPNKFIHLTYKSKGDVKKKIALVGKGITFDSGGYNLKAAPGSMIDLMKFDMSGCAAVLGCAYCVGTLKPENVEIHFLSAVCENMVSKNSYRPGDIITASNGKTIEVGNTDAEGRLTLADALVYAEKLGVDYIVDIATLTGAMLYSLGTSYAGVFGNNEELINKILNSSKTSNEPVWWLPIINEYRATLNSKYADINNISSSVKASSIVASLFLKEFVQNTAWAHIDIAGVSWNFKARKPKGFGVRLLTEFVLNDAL
# PROTOCOL_TEXT: P. falciparum M17LAP inhibitors, primary screen, biochemical, fluorogenic H-Leu-NHMec substrate, 1536-well (AID 1619)
# Format: functional
The source made the active and inactive calls. The rule behind the calls is not given here.
MEASURED_METRIC: IC50

IN: Record request: IC50 value, item Oc1cc(-c2ccccc2)nc2nc(COc3ccccc3)nn12
OUT: 7.61 µM (active)

IN: // returns reported IC50 for input COc1cccc2c(SCC(=O)N/N=C/c3ccc(O)c(O)c3)cc(C)nc12
OUT: 16.2 µM (active)

IN: Requested read-out: IC50. Entry: COC(=O)c1ccccc1NC(=O)CN1C(=O)c2ccccc2S1(=O)=O
OUT: 18.1 µM (active)

IN: Recorded IC50 for Cc1noc(NS(=O)(=O)c2ccc(N/C=C\C(=O)c3ccc4c(c3)OCO4)cc2)c1C , please?
OUT: 13.9 µM (active)

IN: Consider the compound shown here: COc1cc(/C=C2\SC(=S)N(NS(=O)(=O)c3ccc(C)cc3)C2=O)ccc1O What is its recorded IC50?
OUT: 27.1 µM (active)

IN: # IC50 lookup, item Cc1ccc(/C=N/Nc2ccc(C(=O)O)cc2)s1
OUT: 20.4 µM (active)

IN: What does the data say about its IC50? Entry: O=C(CSc1nnc(NC2CCCCC2)s1)NN1C(=O)NC2(CCCCC2)C1=O
OUT: 10.5 µM (active)

IN: I am curious: what IC50 value has been reported for Cc1ccc(NC(=O)CSc2nnc(NC(=O)CN3CCOCC3)s2)cc1 ?
OUT: 9.15 µM (active)

IN: Consider the compound shown here: COc1cccc(/C=C2/SC(=O)N(CC(=O)N3CCc4ccccc4C3)C2=O)c1OCC(=O)O What is its recorded IC50?
OUT: 16.2 µM (active)

IN: Any idea what its IC50 is? The compound is COc1ccc(-c2cc(=O)oc3cc(OC(C)C(=O)O)ccc23)cc1 (stereo unspecified)
OUT: 43.9 µM (active)

IN: For the compound O=C(CSc1nnc(Nc2ccccc2)s1)NN1C(=O)NC2(CCCCC2)C1=O , what IC50 is on record?
OUT: < 1 µM (active)
